Target: 6×His-CRBN-DDB1 protein (Homo sapiens (Human), UniProt Q96SW2)
Sequence (Q96SW2 whole entry): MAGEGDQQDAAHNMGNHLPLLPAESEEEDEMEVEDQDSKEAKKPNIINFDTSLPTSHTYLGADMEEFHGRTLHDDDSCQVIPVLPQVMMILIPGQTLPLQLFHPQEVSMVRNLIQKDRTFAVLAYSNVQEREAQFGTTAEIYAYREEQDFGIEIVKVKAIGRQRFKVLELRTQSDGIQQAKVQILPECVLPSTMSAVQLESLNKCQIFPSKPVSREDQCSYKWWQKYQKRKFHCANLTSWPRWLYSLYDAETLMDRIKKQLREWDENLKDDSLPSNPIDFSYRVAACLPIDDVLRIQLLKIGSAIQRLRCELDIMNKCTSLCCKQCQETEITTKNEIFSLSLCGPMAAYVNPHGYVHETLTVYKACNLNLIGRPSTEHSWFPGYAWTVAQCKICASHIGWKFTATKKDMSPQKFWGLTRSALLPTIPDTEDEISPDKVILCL
Sequence (Q16531 whole entry partner): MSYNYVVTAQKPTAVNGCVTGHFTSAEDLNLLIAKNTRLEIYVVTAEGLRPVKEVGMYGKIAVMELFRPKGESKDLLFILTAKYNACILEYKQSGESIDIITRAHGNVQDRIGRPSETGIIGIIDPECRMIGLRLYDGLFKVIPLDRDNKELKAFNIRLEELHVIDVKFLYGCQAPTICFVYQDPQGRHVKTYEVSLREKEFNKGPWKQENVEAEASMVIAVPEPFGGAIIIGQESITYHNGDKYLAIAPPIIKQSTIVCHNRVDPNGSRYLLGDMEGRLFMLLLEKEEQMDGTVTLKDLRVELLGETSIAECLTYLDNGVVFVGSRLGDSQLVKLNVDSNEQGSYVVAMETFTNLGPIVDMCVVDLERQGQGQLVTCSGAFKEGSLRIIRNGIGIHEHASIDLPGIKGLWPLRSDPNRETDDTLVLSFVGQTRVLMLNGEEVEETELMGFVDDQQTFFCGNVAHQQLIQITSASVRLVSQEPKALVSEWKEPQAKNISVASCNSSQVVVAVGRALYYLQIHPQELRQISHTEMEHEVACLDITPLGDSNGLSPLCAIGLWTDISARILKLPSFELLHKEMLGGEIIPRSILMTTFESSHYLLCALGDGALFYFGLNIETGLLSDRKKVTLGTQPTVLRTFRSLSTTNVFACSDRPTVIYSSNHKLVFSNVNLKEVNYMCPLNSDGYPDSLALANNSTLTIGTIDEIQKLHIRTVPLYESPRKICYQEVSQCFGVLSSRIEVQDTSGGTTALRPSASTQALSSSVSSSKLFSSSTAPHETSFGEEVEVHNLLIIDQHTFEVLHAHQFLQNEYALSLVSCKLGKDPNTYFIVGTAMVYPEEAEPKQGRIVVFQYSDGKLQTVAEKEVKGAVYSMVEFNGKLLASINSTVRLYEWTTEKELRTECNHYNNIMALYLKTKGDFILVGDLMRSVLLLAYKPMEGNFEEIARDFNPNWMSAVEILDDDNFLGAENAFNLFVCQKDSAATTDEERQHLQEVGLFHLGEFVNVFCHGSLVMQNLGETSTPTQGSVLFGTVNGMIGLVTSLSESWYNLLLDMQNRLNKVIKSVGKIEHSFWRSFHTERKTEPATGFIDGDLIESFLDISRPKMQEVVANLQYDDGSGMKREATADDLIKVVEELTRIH
Test: CRBN fluorescence polarization assay
Format: binding
Conditions: fluorescence polarization, Cy5-O-Len probe; read-out: CRBN IC50
Procedure: 6×His-CRBN-DDB1 protein (200 nM) and Cy5-O-Len probe (30 nM) were combined in 20 mM HEPES pH 7, 150 mM NaCl, 0.005% Tween-20 assay buffer. […] The plates were incubated in the dark for 1 hour at room temperature and then read on an Envision plate reader (PerkinElmer, Massachusetts, USA).
QUANTITY NAME: pIC50
Reminder that pIC50 is minus the log10 of a molar concentration.

Worked cases, pIC50 given:
O=C1CCC(N2C(=O)c3ccc(NS(=O)(=O)c4ccccc4)cc3C2=O)C(=O)N1 (stereo not drawn) [Compound 20]
7.14
Cc1ccc(S(=O)(=O)Nc2ccc3c(c2)C(=O)N(C2CCC(=O)NC2=O)C3=O)cc1Cl (stereo not drawn) [Compound 7]
7.89

Lab note: next molecule to report on.
Form field: pIC50 recorded for O=C1CCC(N2C(=O)c3ccc(NS(=O)(=O)c4cccc(OC(F)(F)F)c4)cc3C2=O)C(=O)N1 (stereo not drawn) [Compound 2] with 6×His-CRBN-DDB1 protein (Homo sapiens (Human), UniProt Q96SW2) (enter value)
7.27

---

assay: Aqueous solubility assay; format: physicochemical; conditions: aqueous solubility at pH = 7.4, triplicate
QUANTITY NAME: Sol.

Worked cases, Sol. given:
O=C1CCC(N2Cc3cc(CNC(=O)C(F)(F)c4ccc(Cl)cc4)ccc3C2=O)C(=O)N1 (centres unmarked) [CC-90009, reference compound]
77 µM
O=C1CCC(N2C(=O)c3ccc(NS(=O)(=O)c4ccccc4OC(F)(F)F)cc3C2=O)C(=O)N1 (centres unmarked)
67 µM
O=C1CCC(N2C(=O)c3ccc(NS(=O)(=O)c4cccc(OC(F)(F)F)c4)cc3C2=O)C(=O)N1 (centres unmarked)
64 µM
O=C1CCC(N2C(=O)c3ccc(NS(=O)(=O)c4ccccc4)cc3C2=O)C(=O)N1 (centres unmarked)
71 µM

Sol. for Cc1c(Cl)cccc1S(=O)(=O)Nc1ccc2c(c1)C(=O)N(C1CCC(=O)NC1=O)C2=O (centres unmarked) ?
64 µM

---

The reader will find reported Papp values listed item by item below.
tested on: MDCKII-MDR1 cells; experiment: MDCKII-MDR1 permeability assay; type: in vitro ADME; conditions: permeability in MDCK-MDR1 cells
Kindly answer with a numeric value in ×10⁻⁶ cm/s, unit omitted.

O=C1CCC(N2C(=O)c3ccc(NS(=O)(=O)c4cccc(OC(F)(F)F)c4)cc3C2=O)C(=O)N1 (stereo not drawn) [Compound 2]
4
O=C1CCC(N2C(=O)c3ccc(NS(=O)(=O)c4ccccc4OC(F)(F)F)cc3C2=O)C(=O)N1 (stereo not drawn) [Compound 1]
2.3
O=C1CCC(N2Cc3cc(CNC(=O)C(F)(F)c4ccc(Cl)cc4)ccc3C2=O)C(=O)N1 (stereo not drawn) [CC-90009, reference compound]
4.9
O=C1CCC(N2C(=O)c3ccc(NS(=O)(=O)c4ccccc4)cc3C2=O)C(=O)N1 (stereo not drawn) [Compound 20]
3.6

Papp for Cc1c(Cl)cccc1S(=O)(=O)Nc1ccc2c(c1)C(=O)N(C1CCC(=O)NC1=O)C2=O (stereo not drawn) [Compound 5] ?
3.6

Consider next the compound Cc1ccc(S(=O)(=O)Nc2ccc3c(c2)C(=O)N(C2CCC(=O)NC2=O)C3=O)cc1Cl (stereo not drawn) [Compound 7] in the same way.
4.6

---

biological target: 6×His-CRBN-DDB1 protein (Homo sapiens (Human)); experiment: CRBN fluorescence polarization assay; assay type: binding; settings: CRBN FP IC50, cereblon binding, class symbols
QUANTITY NAME: IC50

O=C1CCC(N2C(=O)c3ccc(NS(=O)(=O)c4ccccc4)cc3C2=O)C(=O)N1 (centres unmarked) [Compound 20]
< 1000 nM

Lab note: next molecule to report on.
IC50 for O=C1CCC(N2C(=O)c3ccc(NS(=O)(=O)c4cccc(OC(F)(F)F)c4)cc3C2=O)C(=O)N1 (centres unmarked) [Compound 2] ?
< 1000 nM

---

molecular target: 6×His-CRBN-DDB1 protein (Homo sapiens (Human)); assay: CRBN fluorescence polarization assay; format: binding; conditions: CRBN IC50, fluorescence polarization, Cy5-O-Len probe
QUANTITY NAME: pIC50
Reminder that pIC50 is minus the log10 of a molar concentration.

pIC50 for O=C1CCC(N2C(=O)c3ccc(NS(=O)(=O)c4cccc(OC(F)(F)F)c4)cc3C2=O)C(=O)N1 (stereo not shown) ?
7.14

---

Target: 6×His-CRBN-DDB1 protein (Homo sapiens (Human), UniProt Q96SW2)
Experiment: CRBN fluorescence polarization assay
Format: binding
Conditions: cereblon binding, class symbols; read-out: CRBN FP IC50
Experimental: 6×His-CRBN-DDB1 protein (200 nM) and Cy5-O-Len probe (30 nM) were combined in 20 mM HEPES pH 7, 150 mM NaCl, 0.005% Tween-20 assay buffer. […] The plates were incubated in the dark for 1 hour at room temperature and then read on an Envision plate reader (PerkinElmer, Massachusetts, USA).
QUANTITY NAME: IC50

Worked cases, IC50 given:
O=C1CCC(N2C(=O)c3ccc(NS(=O)(=O)c4ccc(F)c(F)c4)cc3C2=O)C(=O)N1 (stereo not shown) [Compound 11]
< 1000 nM
Cc1ccc(F)c(S(=O)(=O)Nc2ccc3c(c2)C(=O)N(C2CCC(=O)NC2=O)C3)c1 (stereo not shown) [Compound 34]
< 1000 nM
O=C1CCC(N2Cc3cc(NS(=O)(=O)c4ccccc4)ccc3C2=O)C(=O)N1 (stereo not shown) [Compound 38]
1000 to 10000 nM

IC50 for Cc1ccccc1S(=O)(=O)Nc1ccc2c(c1)C(=O)N(C1CCC(=O)NC1=O)C2=O (stereo not shown) [Compound 15] ?
< 1000 nM

Consider next the compound Cc1ccc(S(=O)(=O)Nc2ccc3c(c2)C(=O)N(C2CCC(=O)NC2=O)C3=O)cc1C (stereo not shown) [Compound 93] in the same way.
< 1000 nM

Consider next the compound CCOc1ccccc1S(=O)(=O)Nc1ccc2c(c1)C(=O)N(C1CCC(=O)NC1=O)C2=O (stereo not shown) [Compound 79] in the same way.
1000 to 10000 nM

Consider next the compound O=C1CCC(N2C(=O)c3ccc(NS(=O)(=O)c4cc(F)c(Cl)cc4F)cc3C2=O)C(=O)N1 (stereo not shown) [Compound 66] in the same way.
< 1000 nM

Consider next the compound Cc1ccc(F)c(S(=O)(=O)Nc2ccc3c(c2)CN(C2CCC(=O)NC2=O)C3=O)c1 (stereo not shown) [Compound 53] in the same way.
< 1000 nM

Consider next the compound O=C1CCC(N2C(=O)c3ccc(NS(=O)(=O)Cc4ccc(F)cc4)cc3C2=O)C(=O)N1 (stereo not shown) [Compound 89] in the same way.
< 1000 nM

Consider next the compound O=C1CCC(N2C(=O)c3ccc(NS(=O)(=O)c4ccc(OC(F)(F)F)cc4)cc3C2=O)C(=O)N1 (stereo not shown) [Compound 96] in the same way.
< 1000 nM

Consider next the compound O=C1CCC(N2C(=O)c3ccc(NS(=O)(=O)Cc4ccc(Cl)cc4)cc3C2=O)C(=O)N1 (stereo not shown) [Compound 57] in the same way.
< 1000 nM

Consider next the compound Cc1ccc(F)cc1S(=O)(=O)Nc1ccc2c(c1)C(=O)N(C1CCC(=O)NC1=O)C2=O (stereo not shown) [Compound 75] in the same way.
< 1000 nM

Consider next the compound N#Cc1ccc(S(=O)(=O)Nc2ccc3c(c2)C(=O)N(C2CCC(=O)NC2=O)C3=O)cc1 (stereo not shown) [Compound 64] in the same way.
< 1000 nM

Consider next the compound O=C1CCC(N2Cc3ccc(NS(=O)(=O)c4cccc(C(F)(F)F)c4)cc3C2=O)C(=O)N1 (stereo not shown) [Compound 32] in the same way.
< 1000 nM

Consider next the compound Cc1cc(S(=O)(=O)Nc2ccc3c(c2)C(=O)N(C2CCC(=O)NC2=O)C3=O)c(C)o1 (stereo not shown) [Compound 84] in the same way.
< 1000 nM

Consider next the compound Cc1cc(S(=O)(=O)Nc2ccc3c(c2)C(=O)N(C2CCC(=O)NC2=O)C3=O)c(C)cc1Cl (stereo not shown) [Compound 77] in the same way.
< 1000 nM

Consider next the compound Cc1ccccc1S(=O)(=O)Nc1ccc2c(c1)CN(C1CCC(=O)NC1=O)C2=O (stereo not shown) [Compound 54] in the same way.
< 1000 nM

Consider next the compound O=C1CCC(N2C(=O)c3ccc(NS(=O)(=O)c4cccc(C(F)(F)F)c4)cc3C2=O)C(=O)N1 (stereo not shown) [Compound 4] in the same way.
< 1000 nM

Consider next the compound O=C1CCC(N2Cc3cc(NS(=O)(=O)c4ccc(F)c(Cl)c4)ccc3C2=O)C(=O)N1 (stereo not shown) [Compound 49] in the same way.
< 1000 nM
